# EXPERIMENT SUMMARY: Distribution coefficient, log D of the compound
# Format: physicochemical
# STUDY CONDITIONS: octanol/water
Listed compounds paired with reported logD

COMPOUND	logD
Cc1nc2c3c(c(C(=O)NC4CC4)cn2c1C)CCC(c1ccccc1)O3 (racemic)	3.22
CCc1c(C)nc2c3c(c(C(=O)N(C)C)cn12)CCC(c1ccccc1)O3 (racemic)	3
CC#CC(O)c1c(C)nc2c3c(c(C(=O)N(C)C)cn12)CCC(c1ccccc1)O3 (racemic)	2.5
Cc1nc2c3c(c(C(N)=O)cn2c1C)CCC(c1ccccc1)O3 (racemic)	2.53
COCCNC(=O)c1c(C)nc2c3c(c(C(=O)N(C)C)cn12)CCC(c1ccccc1)O3 (racemic)	1.95
Cc1nc2c3c(c(C(=O)N4CC4)cn2c1C)CCC(c1ccccc1)O3 (racemic)	2.9
Cc1nc2c3c(c(C(=O)N4CCCC4)cn2c1C)CCC(c1ccccc1)O3 (racemic)	2.83
Cc1nc2c3c(c(C(=O)N(C)C)cn2c1CN(C)C)CCC(c1ccccc1)O3 (racemic)	1.8
Cc1nc2c3c(c(C(=O)N(C)C)cn2c1C)CCC(c1ccccc1)O3 (racemic)	2.83

* * *

# EXPERIMENT SUMMARY: Dissociation constant, pKa of the compound
# Format: physicochemical
ASSAY ENDPOINT: pKa

MOLECULE	EXPERIMENTAL RESULT
Cc1nc2c3c(c(C(=O)N(C)C)cn2c1CO)CCC(c1ccccc1)O3 (racemic)	5.86
Cc1nc2c3c(c(C(=O)NS(C)(=O)=O)cn2c1C)CCC(c1ccccc1)O3 (racemic)	2.5
Cc1nc2c3c(ccn2c1C)CCC(c1ccccc1)O3 (racemic)	7.73
Cc1nc2c3c(c(C(=O)NC4CCC4)cn2c1C)CCC(c1ccccc1)O3 (racemic)	6.68
Cc1nc2c3c(c(C(=O)N4CCCC4)cn2c1C)CCC(c1ccccc1)O3 (racemic)	6.73
COCCNC(=O)c1c(C)nc2c3c(c(C(=O)N(C)C)cn12)CCC(c1ccccc1)O3 (racemic)	4.38
CON(C)C(=O)c1cn2c(C)c(C)nc2c2c1CCC(c1ccccc1)O2 (racemic)	6.49
Cc1nc2c3c(c(C(=O)N(C)C)cn2c1C)CCC(c1ccc(F)cc1)O3 (racemic)	6.74
CCc1c(C)nc2c3c(c(C(=O)N(C)C)cn12)CCC(c1ccccc1)O3 (racemic)	6.7
CC#CC(=O)c1c(C)nc2c3c(c(C(=O)N(C)C)cn12)CCC(c1ccccc1)O3 (racemic)	3.2
Cc1nc2c3c(c(C(=O)N4CCC4)cn2c1C)CCC(c1ccccc1)O3 (racemic)	6.64
CC#CC(O)c1c(C)nc2c3c(c(C(=O)N(C)C)cn12)CCC(c1ccccc1)O3 (racemic)	5.58
CCOC(=O)c1cn2c(C)c(C)nc2c2c1CCC(c1ccccc1)O2 (racemic)	6.35
Cc1ccccc1C1CCc2c(C(=O)N(C)C)cn3c(C)c(C)nc3c2O1 (racemic)	6.74
CCOc1ccc(NC(=O)c2cn3c(C)c(C)nc3c3c2CCC(c2ccccc2)O3)cc1 (racemic)	6.57
Cc1nc2c3c(c(C(=O)N4CC(O)C4)cn2c1C)CCC(c1ccccc1)O3 (racemic)	6.63
Cc1nc2c3c(c(C(=O)N4CCNCC4)cn2c1C)CCC(c1ccccc1)O3 (racemic)	6.44
Cc1nc2c3c(c(C(=O)N4CC4)cn2c1C)CCC(c1ccccc1)O3 (racemic)	6.63
Cc1nc2c3c(c(C(=O)NC4CC4)cn2c1C)CCC(c1ccccc1)O3 (racemic)	6.69
Cc1nc2c3c(c(C(N)=O)cn2c1C)CCC(c1ccccc1)O3 (racemic)	6.52
Cc1nc2c3c(c(C(=O)N(C)C)cn2c1C)CCC(c1ccccc1F)O3 (racemic)	6.78
Cc1nc2c3c(c(C(=O)Nc4ccccc4)cn2c1C)CCC(c1ccccc1)O3 (racemic)	6.59
Cc1nc2c3c(c(C(=O)N(C)C)cn2c1C(=O)N(C)C)CCC(c1ccccc1)O3 (racemic)	4.51
Cc1nc2c3c(c(C(=O)N(C)C)cn2c1C)CCC(c1ccccc1)O3 (racemic)	7.15
CCN(CC)C(=O)c1cn2c(C)c(C)nc2c2c1CCC(c1ccccc1)O2 (racemic)	6.75
CNC(=O)c1cn2c(C)c(C)nc2c2c1CCC(c1ccccc1)O2 (racemic)	6.74
Cc1nc2c3c(c(C(=O)N(C)C)cn2c1CN(C)C)CCC(c1ccccc1)O3 (racemic)	4.09
CC(=O)c1c(C)nc2c3c(c(C(=O)N(C)C)cn12)CCC(c1ccccc1)O3 (racemic)	3.73
Cc1nc2c3c(c(C(=O)N(C)C)cn2c1Br)CCC(c1ccccc1)O3 (racemic)	4.68
Cc1nc2c3c(c(C(=O)O)cn2c1C)CCC(c1ccccc1)O3 (racemic)	2.65
Cc1nc2c3c(c(C(=O)N(C)C)cn2c1C)CCC(c1cccs1)O3 (racemic)	6.64
